Just for reference, ChEMBL document CHEMBL3091283 is where these values come from.

Test: AUC in Beagle dog at 1 mg/kg, iv and 3 mg/kg, po
Assay type: ADME, organism-based, Canis lupus familiaris
Details: plasma
Quantity Measured: AUC

Prompt line: Note AUC for the molecule shown: Cc1nc(N2CCN(C)CC2)c2nc(-c3ccccc3Cl)n(CCS(C)(=O)=O)c2n1.Cl
Response line: 286 ng·h/mL

Prompt line: Consider the molecule Cc1nc(N2CCN(C)CC2)c2nc(-c3ccccc3Cl)n(C3CCOCC3)c2n1.Cl . State its measured AUC.
Response line: 1940 ng·h/mL

###

Provide the recorded bioavailability for the entries that follow.
Experiment: Oral bioavailability in Sprague-Dawley rat at 1 mg/kg
Format: ADME, organism-based
Details: in vivo
Answer format: numeric, % implied, no suffix.

Prompt line: Indicate the recorded bioavailability value for this compound: Cc1nc(N2CCN(C)CC2)c2nc(-c3ccccc3Cl)n(C3CCOCC3)c2n1.Cl
Response line: 67

Prompt line: Recall and state the measured bioavailability for Cc1nc(N2CCN(C)CC2)c2nc(-c3ccccc3Cl)n(CCS(C)(=O)=O)c2n1.Cl .
Response line: 43

Prompt line: Please supply the value of reported bioavailability for the item CCN1CCN(c2nc(C)nc3c2nc(-c2ccccc2Cl)n3CC2CCOCC2)CC1.Cl
Response line: 27

###

I'd be grateful if you could share measured Papp B→A at 5 µM for these entries.
Tested on: MDR1
Test: MDR1-mediated transport in MDCK cells assessed as permeability from basolateral to apical side at 5 uM
Assay type: ADME, cell-based, Canis lupus familiaris
Conditions: dog, read-out: permeability
Number only, in ×10⁻⁶ cm/s; omit the unit.

Prompt line: Report Papp B→A at 5 µM for Cc1nc(N2CCN(C)CC2)c2nc(-c3ccccc3Cl)n(C3CCOCC3)c2n1.Cl
Response line: 3.1

Prompt line: For the compound Cc1nc(N2CCN(C)CC2)c2nc(-c3ccccc3Cl)n(CCS(C)(=O)=O)c2n1.Cl , report Papp B→A at 5 µM.
Response line: 43

###

Assay: Oral bioavailability in Beagle dog at 3 mg/kg
Assay type: ADME, organism-based, Canis lupus familiaris
Conditions: in vivo
Give measured bioavailability for each item. Keep answers brief.
The figure you give is taken to be in %; do not add the unit.

Prompt line: Please list bioavailability recorded for the compound Cc1nc(N2CCN(C)CC2)c2nc(-c3ccccc3Cl)n(C3CCOCC3)c2n1.Cl
Response line: 76

Prompt line: Write down bioavailability measured for item Cc1nc(N2CCN(C)CC2)c2nc(-c3ccccc3Cl)n(CCS(C)(=O)=O)c2n1.Cl
Response line: 60

###

Assay: Lipophilicity, log P of the compound
Assay type: physicochemical
Details: octanol/water
Consider the following compounds; for each one, report its logP.
Give your answer as a number; write no unit.

Prompt line: Please supply the value of reported logP for the item Cc1nc(N2CCN(C)CC2)c2nc(-c3ccccc3Cl)n([C@@H]3CCOC3)c2n1
Response line: 3.2

Prompt line: Give the measured logP for CCN1CCN(c2nc(C)nc3[nH]c(-c4ccccc4Cl)nc23)CC1
Response line: 3.7

Prompt line: Using the record for CCN1CCN(c2nc(C)nc3c2nc(-c2ccccc2Cl)n3CC2CCOCC2)CC1.Cl , state its measured logP.
Response line: 3.4

Prompt line: Provide one value: measured logP of Cc1nc(N2CCN(C)CC2)c2nc(-c3ccccc3Cl)n(C3CCOCC3)c2n1.Cl
Response line: 3.1
